Test system: U251 CNS
Experiment: NCI tumour cell line growth inhibition, 48 h
assay-metric: TGI

# annotated cases, reported TGI shown
>  <compound>
CC1(CO)OC(n2cc(C(=O)NC(=O)OCc3ccccc3)c(=O)[nH]c2=O)CC1O (stereo unspecified)

>  <TGI>
> 100 µM

$$$$
>  <compound>
COC(=O)c1ccccc1CC1Cc2ccc3c(c2C1)CCC3 (stereo unspecified)

>  <TGI>
85.1 µM

$$$$
>  <compound>
Oc1ccccc1/C=N/Nc1nc(N/N=C/c2ccccc2O)nc(N/N=C/c2ccccc2O)n1

>  <TGI>
> 100 µM

$$$$

Batch lookup, TGI per entry.
1. COC(=O)c1sc2ncc3c(c2c1N)CCCCCC3
2. Cc1nc2sc3ccccc3n2c(=O)c1N=Nc1ccc(Br)cc1
3. COc1cc(C2c3cc(O)c(OC)cc3C3OCC2C3CO)ccc1O (stereo unspecified)

> 100 µM
> 100 µM
> 100 µM

###

System: SW-620 colon
Assay: NCI tumour cell line growth inhibition, 48 h
assay-metric: TGI

>  <compound>
CC(OC(C)(C)C)[C@H](NC(=O)OC(C)(C)C)C(=O)O (stereo partly specified)

>  <assay-metric>
TGI

>  <reading>
> 100 µM

$$$$

# batch: return TGI for each of the 4 compounds below
1. C/C(=N\Nc1cc(C)c2cc(C)ccc2n1)c1ccccn1
2. N#C/C(=C/c1ccc[nH]1)P(=O)(O)O
3. CC1(C)O[C@@H]2[C@@H](COC(=O)c3ccccc3)C[C@@H](C#N)[C@@H]2O1
4. C[S+](C)CCOC(=O)C(=[N+]=[N-])c1ccc([N+](=O)[O-])cc1

1: 1.98 µM; 2: > 100 µM; 3: > 100 µM; 4: > 100 µM

Provide the reported TGI of each entry below, same order.
1. Fc1ccc2c(c1)c(-c1nc(-c3c[nH]c4ncccc34)cs1)cn2CCCN1CCCCC1
2. Cc1ccc(N=Nc2ccc(O)c(CN(C)C)c2)cc1C
3. Cc1ccccc1C(=O)c1ccccc1O
4. Cc1nc(Nc2ccccc2Cl)sc1C(=O)CC(=O)C(=O)Nc1c(Cl)cccc1Cl

["3.75 µM", "> 100 µM", "> 100 µM", "65.5 µM"]

Working through the 2 compounds below one at a time, give TGI for each.
1. c1cc(Sc2nc(Sc3ccncc3)nc(Sc3ccncc3)n2)ccn1
2. Cc1nc2sc3ccccc3n2c(=O)c1N=Nc1ccc(Br)cc1

1: > 100 µM; 2: > 100 µM

###

System: U251 CNS
Test: NCI tumour cell line growth inhibition, 48 h
assay-metric: log10(TGI) (log10 of the value in µM)
Please interpret these as log10 of TGI where TGI is in µM.

Some solved cases for reference:
>  <compound>
CC1(C)N=C(N)N=C(N)N1c1ccc(OCCCCOc2ccc(S(=O)(=O)F)cc2)c(Cl)c1

>  <log10(TGI)>
1.13

$$$$
>  <compound>
COc1ccc(C[C@H](N)C(=O)NC2C(CO)OC(n3cnc4c(N(C)C)ncnc43)C2O)cc1 (some centres undefined)

>  <log10(TGI)>
-0.88

$$$$
>  <compound>
COC(=O)c1c2c(c(C)[n+]([O-])c1C)C(=O)C=C(NCc1ccc(F)c(Cl)c1)C2=O

>  <log10(TGI)>
0.16

$$$$
>  <compound>
O=C(CN1CCN(CCCOc2c(-c3ccccc3)oc3ccccc3c2=O)CC1)Nc1ccc(Cl)cc1C(=O)c1ccccc1Cl

>  <log10(TGI)>
1.28

$$$$

Next item in the queue.
Query: log10(TGI); subject: "Cc1ccc(-n2c3c(c4c(CN(C)C)c(O)ccc42)CCc2ccccc2C3=O)cc1"
1.48

###

Tested on: PC-3 prostate
Experiment: NCI tumour cell line growth inhibition, 48 h
Record form. Attribute: TGI. Fill in for each entry.

>  <molecule>
CNC(=O)c1n[nH]nc1Sc1c([N+](=O)[O-])ncn1C

>  <TGI>
> 100 µM

$$$$
>  <molecule>
CCCCc1c2c(nc3c1CCCC3O)CCCC2 (stereo not drawn)

>  <TGI>
> 100 µM

$$$$

Dear reader, for each entry below, please note its TGI.
1. Ic1ccccc1-c1ccccc1
2. CCOC(=O)c1[nH]c(Br)c(-c2ccc(Br)cc2)c1Br
3. c1ccc2c(c1)nc1n2CCCn2ccnc2-1
4. O=C(CNc1ccc2c(c1)C(=O)c1ccccc1C2=O)Nc1ccc2c(c1)C(=O)c1ccccc1C2=O

1. > 100 µM
2. 15.5 µM
3. > 100 µM
4. 3.48 µM

Below are 4 molecules. Give each one its TGI.
1. CCCc1cc2c(=O)c(C(=O)OC)c[nH]c2cc1N(CC)CC
2. CC(C)(O)CS(=O)(=O)Nc1ccc2c(c1)CCN(C(=O)COc1cccnc1)C2
3. Cc1cc2nc3c4cc(N)ccc4n(CCN(C)C)c3nc2cc1C
4. COc1ccc(-c2c(=O)[nH]n3c(=S)nc(-c4ccccc4)[nH]c23)cc1OC

1. > 100 µM
2. > 100 µM
3. 8.67 µM
4. 90.7 µM

Count: 2. Required value per item: TGI.
1. Cc1ccc(NC(=O)CSc2nc(C)nc3c2sc(=S)n3-c2ccccc2)cc1
2. Nc1nc(N)c(C2=CCNCC2)c(=O)[nH]1

1: > 10 µM; 2: > 100 µM

###

System: UO-31 renal
Assay: NCI tumour cell line growth inhibition, 48 h
Give measured TGI for each item. Keep answers brief.

>  <compound>
O=C1SS(=O)c2ccccc21 (stereo not given)

>  <target>
UO-31 renal

>  <assay-metric>
TGI

>  <reading>
> 100 µM

$$$$
>  <compound>
CC(C)=NN/C(=N\S(=O)(=O)c1ccc(C)cc1)Nc1ccc(Cl)cc1

>  <target>
UO-31 renal

>  <assay-metric>
TGI

>  <reading>
> 100 µM

$$$$
>  <compound>
O=C(CO)CC(=O)C(=O)Nc1ccccc1

>  <target>
UO-31 renal

>  <assay-metric>
TGI

>  <reading>
> 100 µM

$$$$
>  <compound>
O=c1cc2ccccc2nn1Cc1cccc(Cl)c1

>  <target>
UO-31 renal

>  <assay-metric>
TGI

>  <reading>
> 100 µM

$$$$
>  <compound>
[O-][n+]1onc2c1CCC(=N\O)/C2=N/Nc1ccccc1

>  <target>
UO-31 renal

>  <assay-metric>
TGI

>  <reading>
> 100 µM

$$$$
>  <compound>
CN(C)c1ccc([O][Bi]([Cl])[Cl])cc1

>  <target>
UO-31 renal

>  <assay-metric>
TGI

>  <reading>
> 100 µM

$$$$
>  <compound>
O=C(CCc1ccccc1)ON1C(=S)NC(c2ccccc2)(c2ccccc2)C1=S

>  <target>
UO-31 renal

>  <assay-metric>
TGI

>  <reading>
> 100 µM

$$$$
>  <compound>
Nc1nc(N)c(NC(=O)CCCO)c(=O)[nH]1

>  <target>
UO-31 renal

>  <assay-metric>
TGI

>  <reading>
> 100 µM

$$$$
>  <compound>
CC1(C)N=C(N)N=C(N)N1c1ccc(OCCCCOc2ccc(S(=O)(=O)F)cc2)c(Cl)c1

>  <target>
UO-31 renal

>  <assay-metric>
TGI

>  <reading>
> 100 µM

$$$$
>  <compound>
Cc1nc2ccc(S(=O)(=O)Nc3ccccc3)cc2c(=O)n1NC(=O)CNc1ccccc1

>  <target>
UO-31 renal

>  <assay-metric>
TGI

>  <reading>
> 100 µM

$$$$

Consider the following items and state reported TGI for each.
1. N#Cc1c(O)c(N=Nc2ccccc2F)c(=O)n2c1[nH]c1ccccc12
2. FC(F)(Sc1ccccn1)c1nc2ccccc2o1
3. COC1CC2CCC(C)C(O)(O2)C(=O)C(=O)N2CCCCC2C(=O)OC(C(C)CC2CCC(O)C(OC)C2)CC(=O)C(C)C=C(C)C(O)C(OC)C(=O)C(C)CC(C)/C=C/C=C/C=C1C (stereo not given)
4. CC1(C)O[C@@H]2[C@@H](COC(=O)c3ccccc3)C[C@@H](C#N)[C@@H]2O1
5. CS/C1=C(\c2ccc(C)cc2)N(c2ccccc2)C(=O)C(=O)N(c2ccccc2)/C(c2ccc(C)cc2)=C(/SC)SS1
6. COc1c(C)c2c(c(=O)c3c(C)cccc3n2C)c2c1c(=O)c1c(C)cccc1n2C
7. N#CCCCC[N+]12CN3CN(CN(C3)C1)C2
8. O=C(CNc1cccc([N+](=O)[O-])c1)Nn1c(-c2ccccc2)nc2ccccc2c1=O

["> 100 µM", "> 100 µM", "8.08 µM", "> 100 µM", "> 100 µM", "> 10 µM", "> 100 µM", "4.12 µM"]

// batch mode: one TGI value per listed entry
1. COc1cccc(NC(=O)/C(CC(=O)CC(c2ccccc2)c2c(O)c3ccccc3oc2=O)=N\NC(C)(C)C)c1OC (stereo not given)
2. CC1(c2cccc3ccccc23)OC(=O)c2ccccc21 (stereo not given)
3. Cc1cc2nc3c4cc(N)ccc4n(CCN(C)C)c3nc2cc1C
4. COc1ccc(C[C@H](N)C(=O)NC2C(CO)OC(n3cnc4c(N(C)C)ncnc43)C2O)cc1 (stereo not given in full)
5. O=C1c2ccccc2C(=O)[C@@]23O[C@@]12C1(Oc2cccc4cccc(c24)O1)[C@@H]1O[C@@H]1[C@@H]3O

["> 100 µM", "78.7 µM", "4.8 µM", "7.89 µM", "24.4 µM"]

Please state TGI for every compound in the list that follows.
1. COc1ccc(-c2c(=O)[nH]n3c(=S)nc(-c4ccccc4)[nH]c23)cc1OC
2. CC(C)=CCNc1ncnc2nc[nH]c12
3. CCCCc1c2c(nc3c1CCCC3O)CCCC2 (stereo not given)
4. NC(=O)C(N)=O
5. COc1ccc2nc3ccc(OC)cc3c(SCc3ccc([N+](=O)[O-])cc3)c2c1
6. N#Cc1c(NN)nc(NN)c(C#N)c1-c1ccccc1
7. BrC1=CC=C2NC=CC3=CC=NC1C32 (stereo not given)

1. 33.8 µM
2. > 100 µM
3. > 100 µM
4. > 100 µM
5. > 100 µM
6. > 100 µM
7. 51.3 µM

Hey, quick one: what's TGI for each of these?
1. CCN=C(NNc1ccc([N+](=O)[O-])cc1)P(=O)(OC(C)C)OC(C)C
2. CC(=O)[C@@]1(O)CC[C@H]2[C@@H]3C[C@H](C)C4=CC(=O)CC[C@]4(C)[C@H]3[C@@H](O)C[C@@]21C
3. COc1cc(C)c(/C=C/C(=O)N2C(=O)OC[C@@H]2c2ccccc2)c(C)c1

> 100 µM
> 100 µM
> 100 µM

# return TGI for each item in the list
1. c1ccc(Cc2nc(Cc3n[nH]c(Cc4ccccc4)n3)n[nH]2)cc1
2. Cc1cc(S(N)(=O)=O)c(S/C(CC(C)C)=N\Nc2ccc([N+](=O)[O-])cc2)cc1Cl
3. O=C(c1ccco1)c1nc2cc(Cl)ccc2[n+]([O-])c1C(F)(F)F

["> 100 µM", "23.6 µM", "> 100 µM"]

I would be grateful if you could provide TGI for each of the following entries.
1. O=C1/C(=C/c2ccccc2)CN(C(=O)c2cccnc2)C/C1=C\c1ccccc1
2. NC(=S)N/N=C(\Cc1nc2ccc(Cl)cc2[nH]c1=O)C(=O)Nc1ccc(Cl)cc1
3. CC(C)(C)OC(=O)c1cnc(Cl)cn1
4. Cc1ccc(N=Nc2ccc(O)c(CN(C)C)c2)cc1C

1. 2.9 µM
2. > 100 µM
3. 18.5 µM
4. 53.2 µM
